Give FACS binding data for every item shown.
Target: Mutant CD33-GFP M18 (353AAL) on 293FT cells (UniProt P20138)
Assay: FACS, mutant CD33-GFP on 293FT cells
Give bare numbers.

{"binder": "sdCD33_6 (VHH, sdAb from a naive llama phage library; also called 416; sdAb416) VHH: EVQLVESGGGLVQPRGSLRLSCVVSGSMSSIYSMSWYRQPPGKQRELVAHITTTGTTNYIDSVKGRFTISIDNDINVIYLQMNTLKPEDTAVYYCNAGLKAGPGPRLDYWGLGTQVTVSS", "FACS binding data": 99.8}
{"binder": "sdCD33_5 (VHH, sdAb from a naive llama phage library; also called 413; sdAb413) VHH: QVQLQESGGGLVQPGGSLRLSCAASGSVFSIYAMAWYRQAPGKQRELVAVITSGGATNYADSVKGRFTISRDIAKKTLYLQMNTLKPEDTAVYYCYAHLLIQPFDRFYDYWGQGTQVTVSS", "FACS binding data": 49.2}
{"binder": "sdCD33_8 (VHH, sdAb from a naive llama phage library; also called 424; sdAb424) VHH: QVQLVESGGGLVQAGGSLRLSCAASGGAFSTYTMGWFRQAPGKEREFVAAIAWTGTHTYYSDSVKGRFTISRDNDKNTVFLQMNSLKPEDTAVYYCAQASSRYRAVTDSLSENHWGPGTQVTVST", "FACS binding data": 70.2}
{"binder": "sdCD33_3 (VHH) VHH: DVQLVESGGGLVQPGGSLRLSCSVSGNIDRFYAMGWYRQAPGKQRELVAQLTNNEITTYGDSVEGQFSISGDFDANTVYLQMDSLKPEDTAVYYCHAHVTTTRWSQDYYWGQGTRVTVSS", "FACS binding data": 99}

Hi team, please reply with FACS binding data for each item in this list.
1. sdCD33_11 (VHH, sdAb from a naive llama phage library; also called 430; sdAb430) VHH: AVQLVESGGGLVQAGGSLRLSCAASGDTFANYAMGWFRQAPGKEREFVAAISWSDSSTHYADSVKGRFTIPRDNAKNAVYLQMDQLKPEDMAVYYCYAYIRGVGEVRYVDYWGQGTQVTVSS
2. sdCD33_2 (VHH) VHH: QVQLVQPGGSLRLFCVASEEFFSIYAMGWYRQAPGKQHEMVARFTRDGKITYADSAKGRFTITRDAKNTLNLQMNGLIPEDTAVYYCNINHYWGQGTQVTVSS

Resp:
[99.4, 97.3]
